# Tested on: Crude diglycosidase
# test_name: Examination of temperature in the conversion into isoflavone aglycons by diglycosidase using soybean materials
# Assay type: biochemical, Penicillium multicolor IAM7153
# assay_context: 45 °C; heat treatment of enzyme: no; 1 h
property_measured: Decomposition efficiency of glycitin family in concentrated soybean protein

COc1cc2c(=O)c(-c3ccc(O)cc3)coc2cc1O[C@@H]1O[C@H](COC(=O)CC(=O)O)[C@@H](O)[C@H](O)[C@H]1O [malonylglycitin, 6″-O-malonylglycitin] :: 0.6%
COc1cc2c(=O)c(-c3ccc(O)cc3)coc2cc1O [glycitein] :: 35.2%
COc1cc2c(=O)c(-c3ccc(O)cc3)coc2cc1O[C@@H]1O[C@H](COC(C)=O)[C@@H](O)[C@H](O)[C@H]1O [acetylglycitin, 6″-O-acetylglycitin] :: 34.1%
COc1cc2c(=O)c(-c3ccc(O)cc3)coc2cc1O[C@@H]1O[C@H](CO)[C@@H](O)[C@H](O)[C@H]1O [glycitin] :: 30.2%

----------
# Test system: Crude diglycosidase
# test_name: Examination of pH in the conversion into isoflavone aglycons by diglycosidase using soybean materials
# Assay type: biochemical, Penicillium multicolor IAM7153
# assay_context: pH1.6; heat treatment of enzyme: no; reaction time 3 h
# Protocol: A substrate solution of 450 μL was prepared by suspending 50 mg of each soybean material (roasted soy flour (manufactured by Fuji Shokuryo K.K.), soymilk (manufactured by Gitoh Shokuhin K.K.), defatted soybean (manufactured by Fuji Seiyu K.K.), concentrated soybean protein (manufactured by Fuji Seiyu K.K.)), and adjusting the pH to 2 to 11 with hydrochloric acid or sodium hydroxide. […]
Recorded measurements of Decomposition efficiency of daidzin family in concentrated soybean protein, one per entry
property_measured: Decomposition efficiency of daidzin family in concentrated soybean protein (%)

O=c1c(-c2ccc(O)cc2)coc2cc(O)ccc12 [daidzein] :: 3.3
CC(=O)OC[C@H]1O[C@@H](Oc2ccc3c(=O)c(-c4ccc(O)cc4)coc3c2)[C@H](O)[C@@H](O)[C@@H]1O [acetyldaidzin, 6″-O-acetyldaidzin] :: 41.7
O=c1c(-c2ccc(O)cc2)coc2cc(O[C@@H]3O[C@H](CO)[C@@H](O)[C@H](O)[C@H]3O)ccc12 [daidzin] :: 55.0

----------
# Test system: Crude diglycosidase
# test_name: Examination of pH in the conversion into isoflavone aglycons by diglycosidase using soybean materials
# Format: biochemical, Penicillium multicolor IAM7153
# assay_context: pH4.8; heat treatment of enzyme: no; reaction time 3 h
Recorded measurements of Decomposition efficiency of daidzin family in soymilk, one per entry
property_measured: Decomposition efficiency of daidzin family in soymilk (%)

O=C(O)CC(=O)OC[C@H]1O[C@@H](Oc2ccc3c(=O)c(-c4ccc(O)cc4)coc3c2)[C@H](O)[C@@H](O)[C@@H]1O :: 33.9
O=c1c(-c2ccc(O)cc2)coc2cc(O)ccc12 :: 66.1

----------
Recorded measurements of Decomposition efficiency of daidzin family in roasted soy flour, one per entry
# System: Crude diglycosidase
# test_name: Examination of temperature in the conversion into isoflavone aglycons by diglycosidase using soybean materials
# Format: biochemical, Penicillium multicolor IAM7153
# Set-up: concentration or dose not given beside the values
# assay_context: 80 °C; heat treatment of enzyme: yes; 6 h
property_measured: Decomposition efficiency of daidzin family in roasted soy flour

CC(=O)OC[C@H]1O[C@@H](Oc2ccc3c(=O)c(-c4ccc(O)cc4)coc3c2)[C@H](O)[C@@H](O)[C@@H]1O [acetyldaidzin, 6″-O-acetyldaidzin] :: 45.0%
O=c1c(-c2ccc(O)cc2)coc2cc(O)ccc12 [daidzein] :: 3.8%
O=c1c(-c2ccc(O)cc2)coc2cc(O[C@@H]3O[C@H](CO)[C@@H](O)[C@H](O)[C@H]3O)ccc12 [daidzin] :: 51.3%
